Protocol Notes: Plasma pharmacokinetics studies on rats
Condition Notes: rats; iv dosing 1 mg/kg
Each entry below carries its recorded Yd (iv).

Compound	Yd (iv) (L/kg)
COCCN(C(=O)Nc1ccc(-c2ncnc3[nH]c(C)c(C)c23)cc1F)c1ccc(Cl)cc1 [Compound 18x]	1.2
Cc1[nH]c2ncnc(-c3ccc(NC(=O)N(CCO)c4ccc(Cl)cc4)c(F)c3)c2c1C [Compound 18s]	0.5
COc1ccc(N(CCN)C(=O)Nc2ccc(-c3ncnc4[nH]cc(C)c34)cc2)cc1 [Compound 18o]	6.0
Cc1ccc(N(CCO)C(=O)Nc2ccc(-c3ncnc4[nH]cc(C)c34)cc2)cc1 [Compound 18k]	0.3
Cc1c[nH]c2ncnc(-c3ccc(NC(=O)Nc4cccc(C(=O)NC(C)C)c4)c(F)c3)c12 [Compound 7k]	0.7
Cc1c[nH]c2ncnc(-c3ccc(NC(=O)N(CCN(C)C)c4ccc(Cl)cc4)cc3)c12 [Compound 18r]	17.1
Cc1[nH]c2ncnc(-c3ccc(NC(=O)N(CCN(C)C)c4ccc(Cl)cc4)c(F)c3)c2c1C [Compound 18w]	1.5

###

# IC50 per entry
Measured On: Limk1 (Homo sapiens, UniProt P53667)
Sequence (P53667 285-638): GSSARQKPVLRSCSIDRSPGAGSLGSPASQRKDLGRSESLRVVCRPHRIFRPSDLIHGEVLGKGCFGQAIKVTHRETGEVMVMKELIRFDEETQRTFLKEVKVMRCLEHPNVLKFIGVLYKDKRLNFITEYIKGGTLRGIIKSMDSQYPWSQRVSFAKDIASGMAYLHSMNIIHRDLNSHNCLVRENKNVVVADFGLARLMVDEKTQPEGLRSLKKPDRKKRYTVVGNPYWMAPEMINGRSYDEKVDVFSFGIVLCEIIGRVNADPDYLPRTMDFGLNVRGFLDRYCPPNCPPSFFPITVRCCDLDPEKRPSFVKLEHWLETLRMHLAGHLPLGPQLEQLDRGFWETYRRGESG
Protocol Notes: Limk1 biochemical assay (Reaction Biology, 10-dose IC50)
Set-up: His; purchased Reaction Biology Corporation; host or cells: insect cells
Condition Notes: Table 1; means of ≥2 experiments; read-out: IC50 (nM) Limk1

Smiles Representation	IC50
CC(C)NC(=O)c1cccc(NC(=O)Nc2ccc(-c3ccnc(N)n3)cc2)c1	> 10000 nM
CC(C)NC(=O)c1cccc(NC(=O)Nc2ccc(-c3cn[nH]c3)cc2)c1	> 10000 nM
CC(C)NC(=O)c1cccc(NC(=O)Nc2ccc(-c3ccncc3)cc2)c1	> 10000 nM

###

Measured On: P450 2D6 (Homo sapiens, UniProt P10635)
Sequence (P10635 whole entry): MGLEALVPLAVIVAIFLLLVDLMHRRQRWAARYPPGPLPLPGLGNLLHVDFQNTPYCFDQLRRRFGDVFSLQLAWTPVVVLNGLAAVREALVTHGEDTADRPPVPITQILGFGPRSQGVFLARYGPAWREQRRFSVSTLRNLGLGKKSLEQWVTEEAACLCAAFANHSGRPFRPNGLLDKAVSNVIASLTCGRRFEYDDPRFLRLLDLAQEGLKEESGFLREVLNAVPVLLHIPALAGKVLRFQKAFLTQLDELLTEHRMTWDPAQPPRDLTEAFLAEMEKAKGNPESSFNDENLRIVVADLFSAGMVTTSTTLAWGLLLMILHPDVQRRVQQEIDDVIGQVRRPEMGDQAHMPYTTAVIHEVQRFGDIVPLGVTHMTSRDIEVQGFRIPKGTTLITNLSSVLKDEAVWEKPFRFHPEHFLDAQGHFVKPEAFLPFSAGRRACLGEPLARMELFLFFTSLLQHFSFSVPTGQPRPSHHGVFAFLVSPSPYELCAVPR
Protocol Notes: P450 inhibition at 10 μM
Type: in vitro ADME

Compound	P450 % inh. at 10 μM 2D6 (%)
Cc1[nH]c2ncnc(-c3ccc(NC(=O)N(CCN(C)C)c4ccc(Cl)cc4)c(F)c3)c2c1C [Compound 18w]	20
Cc1[nH]c2ncnc(-c3ccc(NC(=O)N(CCO)c4ccc(Cl)cc4)c(F)c3)c2c1C [Compound 18s]	8
Cc1[nH]c2ncnc(-c3ccc(NC(=O)Nc4cccc(C(=O)NC(C)C)c4)cc3)c2c1C	34
Cc1c[nH]c2ncnc(-c3ccc(NC(=O)Nc4cccc(C(=O)NC(C)C)c4)c(F)c3)c12	13
Cc1c[nH]c2ncnc(-c3ccc(NC(=O)N(CCO)c4ccccc4)cc3)c12 [Compound 18b]	5
COc1cccc(N(CCO)C(=O)Nc2ccc(-c3ncnc4[nH]cc(C)c34)cc2)c1 [Compound 18m]	3
Cc1c[nH]c2ncnc(-c3ccc(NC(=O)N(CCO)c4ccccc4Cl)cc3)c12 [Compound 18f]	1
Cc1c[nH]c2ncnc(-c3ccc(NC(=O)N(CCO)c4ccc(F)cc4)cc3)c12 [Compound 18e]	3
COCCN(C(=O)Nc1ccc(-c2ncnc3[nH]c(C)c(C)c23)cc1F)c1ccc(Cl)cc1 [Compound 18x]	15

###

Measured On: ROCK-II (Homo sapiens)
Sequence (O75116 whole entry, species assumed): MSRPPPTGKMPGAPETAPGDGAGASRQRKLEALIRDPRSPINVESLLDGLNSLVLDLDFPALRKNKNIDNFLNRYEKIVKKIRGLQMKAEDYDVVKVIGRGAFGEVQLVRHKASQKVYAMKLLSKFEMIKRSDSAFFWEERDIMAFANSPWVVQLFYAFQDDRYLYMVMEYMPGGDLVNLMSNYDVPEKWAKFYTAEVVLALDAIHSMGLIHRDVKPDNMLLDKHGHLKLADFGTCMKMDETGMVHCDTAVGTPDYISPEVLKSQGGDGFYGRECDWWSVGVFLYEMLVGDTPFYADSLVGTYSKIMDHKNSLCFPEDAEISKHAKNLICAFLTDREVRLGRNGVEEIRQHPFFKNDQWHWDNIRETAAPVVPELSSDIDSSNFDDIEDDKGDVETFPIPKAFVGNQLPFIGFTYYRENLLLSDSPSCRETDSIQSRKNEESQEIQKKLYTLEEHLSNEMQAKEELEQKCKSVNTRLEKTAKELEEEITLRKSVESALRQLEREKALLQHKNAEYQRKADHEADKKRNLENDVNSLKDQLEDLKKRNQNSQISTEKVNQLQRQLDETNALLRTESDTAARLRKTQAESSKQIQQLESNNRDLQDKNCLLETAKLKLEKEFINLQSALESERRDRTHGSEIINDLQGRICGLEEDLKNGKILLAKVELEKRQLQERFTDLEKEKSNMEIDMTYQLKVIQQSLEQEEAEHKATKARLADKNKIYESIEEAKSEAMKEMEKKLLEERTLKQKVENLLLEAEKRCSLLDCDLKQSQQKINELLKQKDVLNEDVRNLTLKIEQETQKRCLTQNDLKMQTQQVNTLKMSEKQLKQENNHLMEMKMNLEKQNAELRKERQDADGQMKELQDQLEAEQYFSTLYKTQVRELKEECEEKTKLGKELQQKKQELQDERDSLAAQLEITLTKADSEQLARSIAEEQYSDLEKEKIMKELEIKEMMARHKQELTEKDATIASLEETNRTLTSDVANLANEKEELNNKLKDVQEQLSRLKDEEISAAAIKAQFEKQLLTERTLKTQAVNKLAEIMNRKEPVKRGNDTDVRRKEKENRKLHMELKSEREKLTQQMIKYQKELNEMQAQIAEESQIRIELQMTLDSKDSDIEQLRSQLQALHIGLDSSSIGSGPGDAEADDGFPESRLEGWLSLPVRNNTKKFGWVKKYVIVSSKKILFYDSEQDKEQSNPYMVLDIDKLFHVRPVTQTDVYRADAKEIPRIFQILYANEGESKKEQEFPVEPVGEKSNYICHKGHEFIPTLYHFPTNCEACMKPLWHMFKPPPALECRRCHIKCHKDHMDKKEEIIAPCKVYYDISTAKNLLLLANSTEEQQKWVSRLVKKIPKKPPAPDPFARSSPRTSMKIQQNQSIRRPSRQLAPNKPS
Protocol Notes: ROCK-II biochemical counter-screen
Condition Notes: Table 4; means of ≥2 experiments; read-out: IC50 (nM) ROCK-II
// values below are reported IC50

Molecule	Measurement Qualifier	IC50 [nM]
COc1ccc(N(CCN(C)C)C(=O)Nc2ccc(-c3ncnc4[nH]cc(C)c34)cc2)cc1 [Compound 18q]	>	10000
COc1ccc(N(CCO)C(=O)Nc2ccc(-c3ncnc4[nH]cc(C)c34)cc2)cc1 [Compound 18n]	>	10000
Cc1ccccc1N(CCO)C(=O)Nc1ccc(-c2ncnc3[nH]cc(C)c23)cc1 [Compound 18i]	>	10000
Cc1c[nH]c2ncnc(-c3ccc(NC(=O)N(CCN)c4ccc(Cl)cc4)cc3)c12 [Compound 18p]	=	460
Cc1cccc(N(CCO)C(=O)Nc2ccc(-c3ncnc4[nH]cc(C)c34)cc2)c1 [Compound 18j]	=	8940
Cc1c[nH]c2ncnc(-c3ccc(NC(=O)N(CCO)c4ccccc4F)cc3)c12 [Compound 18c]	=	1600
Cc1c[nH]c2ncnc(-c3ccc(NC(=O)N(CCN(C)C)c4ccc(Cl)cc4)cc3)c12 [Compound 18r]	>	10000

Numbers sourced from patent US20190292189A1.
